Tested on: mice; further: test concentration or dose not given here
COND: mouse, in vivo, ip
QUANTITY KIND: Tail Flick .5 hr (percentage of analgesia response)

Request the reported Tail Flick .5 hr (percentage of analgesia response) associated with COc1ccc(Cl)c2c1CCC(CN(C)C)=C2 [N(CH3)2]
0

Tail Flick .5 hr (percentage of analgesia response) lookup needed for CN1CC[C@]23c4c5ccc(O)c4O[C@H]2[C@@H](O)C=C[C@H]3[C@H]1C5.O=S(=O)(O)O [Morphine Sulfate, reference compound] , thanks.
100

Looking for the measured Tail Flick .5 hr (percentage of analgesia response) of COc1ccc(Cl)c2c1CCC(CN1CCC(NC(=O)N3CCCCC3)CC1)=C2 , can you help?
0

Entry under review: CCOC(=O)N1CCN(CC2=Cc3c(Cl)ccc(OC)c3CC2)CC1 . Reported Tail Flick .5 hr (percentage of analgesia response)?
40

Fill in: Tail Flick .5 hr (percentage of analgesia response) of COc1ccc(Cl)c2c1CCC(CN1CCC(C(=O)N3CCCCC3)CC1)=C2 is ___
40

I'd like to know its Tail Flick .5 hr (percentage of analgesia response). The molecule in question is COc1ccc(N2CCN(CC3=Cc4c(Cl)ccc(OC)c4CC3)CC2)cc1
0

I have this molecule here, CCOC1(c2ccccc2)CCN(CC2=Cc3c(Cl)ccc(OC)c3CC2)CC1 , and I need its recorded Tail Flick .5 hr (percentage of analgesia response).
10

Query (molecule): CNC(=O)C1CCN(CC2=Cc3c(Cl)ccc(OC)c3CC2)CC1 ; field requested: Tail Flick .5 hr (percentage of analgesia response)
40

Which measured Tail Flick .5 hr (percentage of analgesia response) value corresponds to COc1ccc(Cl)c2c1CCC(CN1CCC(C(=O)N3CCCC3)CC1)=C2 ?
25

Give the measured Tail Flick .5 hr (percentage of analgesia response) of CCC(=O)OC1CCN(CC2=Cc3c(Cl)ccc(OC)c3CC2)CC1 .
20
